test system: male mice (SPF1, OF1 strain); assay: Analgesic activity: inhibition of pain reactions (abdominal twistings) after intraperitoneal phenylbenzoquinone, oral administration; type: in vivo; details: Mus musculus, po, 8 mg/kg oral, read-out: percentage inhibition of pain reactions

COMPOUND	inhibition in vivo at 8 mg/kg
CCC1Cc2ccc(C(C)C(=O)OCCN3CCOCC3)cc2C1 (centres unmarked)	17%
CC(C(=O)OCCN1CCOCC1)c1ccc2c(c1)CC(C)(C)C2 (centres unmarked)	0%
CC1(C)Cc2ccc(CC(=O)OCCN3CCOCC3)cc2C1	1%
CC(C(=O)OCCN1CCCC1)c1ccc2c(c1)CC(C(C)C)C2 (centres unmarked)	6%
CC(C(=O)O)c1ccc2c(c1)CC(C)(C)C2 (centres unmarked)	13%
CC(CO)c1ccc2c(c1)CC(C(C)C)C2 (centres unmarked)	42%
CC(C(=O)OCCN(C)C)c1ccc2c(c1)CC(C(C)C)C2 (centres unmarked)	7%
CC(C(=O)O)c1ccc2c(c1)CC(C(C)C)C2 (centres unmarked)	17%
CCN(CC)CCOC(=O)C(C)c1ccc2c(c1)CC(C(C)C)C2 (centres unmarked)	20%
CCC1Cc2ccc(C(C)C(=O)O)cc2C1 (centres unmarked)	58%
CC1Cc2ccc(C(C)C(=O)O)cc2C1 (centres unmarked)	14%
